tested on: Rtkn-GFP; assay: ToxTracker genotoxicity assay, Rtkn-GFP reporter induction; settings: GFP induction vs vehicle at 25% cytotoxicity; 24 h exposure, no S9
Metric: Genotoxicity test, Without S9 rat liver extract, Rtkn, 25

* CCCCOCC(CN1CC1C)OC(=O)NCCCCCCn1c(=O)n(CCCCCCNC(=O)OC(COCCCC)CN2CC2C)c(=O)n(CCCCCCNC(=O)OC(COCCCC)CN2CC2C)c1=O (centres unmarked) [Ex. 14] | 0.8 fold
* CCCCOCC(CN1CC1C)OC(=O)NCCCCCCNC(=O)OC(COCCCC)CN1CC1C (centres unmarked) [Comp. Ex. 10, reference compound] | 1.9 fold
* COCCOCCOCCOCCOCCOCCOCCOCCOCCOCCOCCOCCOCCOCC(CN1CC1C)OC(=O)NCCCCCCn1c(=O)n(CCCCCCNC(=O)OC(COCCOCCOCCOCCOCCOCCOCCOCCOCCOCCOCCOCCOCCOC)CN2CC2C)c(=O)n(CCCCCCNC(=O)OC(COCCOCCOCCOCCOCCOCCOCCOCCOCCOCCOCCOCCOCCOC)CN2CC2C)c1=O (centres unmarked) [Ex. 29] | 1.1 fold
* CCCCOCC(CN1CC1C)OC(=O)NCCCCCCN1C(=O)N(CCCCCCNC(=O)OC(COCCCC)CN2CC2C)C1=O (centres unmarked) [Ex. 13] | 1.2 fold
* CC(OC(=O)NCCCCCCn1c(=O)n(CCCCCCNC(=O)OC(C)C(C)N2CC2C)c(=O)n(CCCCCCNC(=O)OC(C)C(C)N2CC2C)c1=O)C(C)N1CC1C (centres unmarked) [Ex. 8] | 1.4 fold

The measured values listed here are drawn from patent US12180194B2.
